target-desc: α1d-AR (Homo sapiens, UniProt P25100)
Construct: expressed in transfected cells; host or cells: COS-7
Sequence (P25100 whole entry): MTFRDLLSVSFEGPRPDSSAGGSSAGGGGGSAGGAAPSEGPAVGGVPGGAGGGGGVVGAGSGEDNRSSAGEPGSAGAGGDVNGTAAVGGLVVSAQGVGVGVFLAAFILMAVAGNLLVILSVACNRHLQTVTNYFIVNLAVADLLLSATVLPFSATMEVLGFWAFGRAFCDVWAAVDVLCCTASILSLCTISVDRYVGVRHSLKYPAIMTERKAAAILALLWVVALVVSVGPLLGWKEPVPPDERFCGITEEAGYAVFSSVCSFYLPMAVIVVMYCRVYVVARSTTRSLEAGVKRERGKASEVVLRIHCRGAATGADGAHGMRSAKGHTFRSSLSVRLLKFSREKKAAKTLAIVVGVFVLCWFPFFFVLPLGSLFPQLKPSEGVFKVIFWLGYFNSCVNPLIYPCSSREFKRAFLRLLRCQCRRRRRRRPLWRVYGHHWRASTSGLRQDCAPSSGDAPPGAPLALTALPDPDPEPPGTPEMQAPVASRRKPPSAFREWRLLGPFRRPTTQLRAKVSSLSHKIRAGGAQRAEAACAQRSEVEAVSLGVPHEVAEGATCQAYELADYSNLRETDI
assay-method-text: α1-Adrenergic receptor radio-ligand (125I-HEAT) binding assay, α1d subtype
recorded-conditions: Receptor Binding, Ki α1d-AR, COS-7 cell membranes, 125I-HEAT
pKi: −log10 of the molar value.
pKi below 8 gives false (0); pKi at or above it gives true (1).

{"compound": "CC(C)Oc1ccccc1N1CCN([C@H]2CC[C@H](NS(=O)(=O)c3ccccc3F)CC2)CC1 [Cpd 49]", "qualitative-label": "false (0)"}
{"compound": "CC(C)Oc1ccccc1N1CCN([C@H]2CC[C@H](NS(=O)(=O)c3cccc(C(F)(F)F)c3)CC2)CC1 [Cpd 44]", "qualitative-label": "false (0)"}
{"compound": "COc1ccc(OC)c(S(=O)(=O)N[C@H]2CC[C@H](N3CCN(c4ccccc4OC(C)C)CC3)CC2)c1 [Cpd 36]", "qualitative-label": "false (0)"}
{"compound": "CC(C)Oc1ccccc1N1CCN([C@H]2CC[C@@H](NS(=O)(=O)c3ccccc3F)CC2)CC1 [Cpd 21]", "qualitative-label": "true (1)"}
{"compound": "CC(C)Oc1ccccc1N1CCN([C@H]2CC[C@H](NS(=O)(=O)c3cccc(C(F)(F)F)c3)CC2)CC1 [Cpd 30]", "qualitative-label": "false (0)"}

###

target-desc: α1a-AR (Homo sapiens)
pKd: −log10 of the molar value.
property-name: pKd

{"molecule": "O=C1c2ccccc2CCC1CNCCc1ccc(O)c(I)c1 (stereo not shown) [125I-HEAT, reference compound]", "target-desc": "α1a-AR (Homo sapiens)", "value": 7.09}

###

target-desc: α1d-AR (Homo sapiens, UniProt P25100)
Construct: expressed in transfected cells; host or cells: COS-7
assay-method-text: α1-Adrenergic receptor radio-ligand (125I-HEAT) binding assay, α1d subtype
pKi: −log10 of the molar value.
property-name: pKi

{"smiles-repr": "COc1ccc(S(=O)(=O)N[C@H]2CC[C@H](N3CCN(c4ccccc4OC(C)C)CC3)CC2)cc1OC", "value": 7.62}
{"smiles-repr": "CC(C)Oc1ccccc1N1CCN([C@H]2CC[C@@H](NS(=O)(=O)c3ccc(Cl)cc3F)CC2)CC1", "value": 8.82}
{"smiles-repr": "COc1ccc(S(=O)(=O)N[C@H]2CC[C@@H](N3CCN(c4ccccc4OC(C)C)CC3)CC2)cc1OC", "value": 9.00}
{"smiles-repr": "CC(C)Oc1ccccc1N1CCN([C@H]2CC[C@H](NS(=O)(=O)c3ccc(Cl)cc3F)CC2)CC1", "value": 7.72}

###

target-desc: α1d-AR (Homo sapiens, UniProt P25100)
Construct: expressed in transfected cells; host or cells: COS-7
assay-method-text: α1-Adrenergic receptor radio-ligand (125I-HEAT) binding assay, α1d subtype
recorded-conditions: COS-7 cell membranes, 125I-HEAT; read-out: Receptor Binding, Ki α1d-AR
# Lookup of reported Ki keyed by entry
property-name: Ki (nM)

{"molecule": "CC(C)Oc1ccccc1N1CCN([C@H]2CC[C@@H](NS(=O)(=O)c3cccc(Cl)c3F)CC2)CC1 [Cpd 23]", "value": 3}
{"molecule": "COc1ccc(Br)cc1S(=O)(=O)N[C@H]1CC[C@@H](N2CCN(c3ccccc3OC(C)C)CC2)CC1 [Cpd 28]", "value": 0.8}
{"molecule": "CC(C)Oc1ccccc1N1CCN([C@H]2CC[C@H](NS(=O)(=O)c3ccccc3S(C)(=O)=O)CC2)CC1 [Cpd 33]", "value": 2.8}
{"molecule": "CC(C)Oc1ccccc1N1CCN([C@H]2CC[C@H](NS(=O)(=O)c3ccc(C(F)(F)F)cc3)CC2)CC1 [Cpd 37]", "value": 65}
{"molecule": "CC(C)Oc1ccccc1N1CCN([C@H]2CC[C@H](NS(=O)(=O)c3cc(Cl)ccc3F)CC2)CC1 [Cpd 40]", "value": 27.3}
{"molecule": "CC(C)Oc1ccccc1N1CCN([C@H]2CC[C@@H](NS(=O)(=O)c3ccccc3C(F)(F)F)CC2)CC1 [Cpd 13]", "value": 3.4}
{"molecule": "CC(C)Oc1ccccc1N1CCN([C@H]2CC[C@@H](NS(=O)(=O)c3ccccc3)CC2)CC1 [Cpd 25]", "value": 5.2}
{"molecule": "COc1ccc(Cl)cc1S(=O)(=O)N[C@H]1CC[C@@H](N2CCN(c3ccc(F)cc3OC(C)C)CC2)CC1 [Cpd 73]", "value": 134}
{"molecule": "O=S(=O)(N[C@H]1CC[C@H](N2CCN(c3ccc(F)cc3OCC(F)(F)F)CC2)CC1)c1cc(Cl)ccc1F [Cpd 82]", "value": 240}
{"molecule": "CC(C)Oc1ccccc1N1CCN([C@H]2CC[C@@H](NS(=O)(=O)c3cccc(F)c3)CC2)CC1 [Cpd 22]", "value": 3.3}
{"molecule": "COc1ccc(F)cc1S(=O)(=O)N[C@H]1CC[C@H](N2CCN(c3ccccc3OC(C)C)CC2)CC1 [Cpd 43]", "value": 66}
{"molecule": "CC(C)Oc1ccccc1N1CCN([C@H]2CC[C@H](NS(=O)(=O)c3cccc(Cl)c3F)CC2)CC1 [Cpd 51]", "value": 24}
{"molecule": "COc1ccc([N+](=O)[O-])cc1S(=O)(=O)N[C@H]1CC[C@H](N2CCN(c3ccccc3OC(C)C)CC2)CC1 [Cpd 47]", "value": 22}
{"molecule": "CC(C)Oc1ccccc1N1CCN([C@H]2CC[C@H](NS(=O)(=O)c3ccc(F)cc3)CC2)CC1 [Cpd 38]", "value": 36}
{"molecule": "CC(C)Oc1ccccc1N1CCN([C@H]2CC[C@@H](NS(=O)(=O)c3ccc(OC(F)(F)F)cc3)CC2)CC1 [Cpd 17]", "value": 2.1}

###

target-desc: α1d-AR (Homo sapiens, UniProt P25100)
Construct: expressed in transfected cells; host or cells: COS-7
assay-method-text: α1-Adrenergic receptor radio-ligand (125I-HEAT) binding assay, α1d subtype
recorded-conditions: COS-7 cell membranes, 125I-HEAT; read-out: Receptor Binding, Ki α1d-AR
# Lookup of reported Ki keyed by entry

{"smiles-repr": "COc1ccc(Cl)cc1S(=O)(=O)N[C@H]1CC[C@@H](N2CCN(c3ccc(F)cc3OCC(F)(F)F)CC2)CC1", "target-desc": "α1d-AR (Homo sapiens, UniProt P25100)", "Ki": "8.5 nM"}
{"smiles-repr": "CC(C)Oc1ccccc1N1CCN([C@H]2CC[C@@H](NS(=O)(=O)c3cnc(Cl)c(Br)c3)CC2)CC1", "target-desc": "α1d-AR (Homo sapiens, UniProt P25100)", "Ki": "0.14 nM"}
{"smiles-repr": "CC(C)Oc1ccccc1N1CCN([C@H]2CC[C@@H](NS(=O)(=O)c3cccnc3)CC2)CC1", "target-desc": "α1d-AR (Homo sapiens, UniProt P25100)", "Ki": "46 nM"}
{"smiles-repr": "COc1ccc(F)cc1S(=O)(=O)N[C@H]1CC[C@@H](N2CCN(c3ccccc3OC(C)C)CC2)CC1", "target-desc": "α1d-AR (Homo sapiens, UniProt P25100)", "Ki": "5 nM"}

###

target-desc: α1b-AR (Homo sapiens, UniProt P35368)
Sequence (P35368 whole entry): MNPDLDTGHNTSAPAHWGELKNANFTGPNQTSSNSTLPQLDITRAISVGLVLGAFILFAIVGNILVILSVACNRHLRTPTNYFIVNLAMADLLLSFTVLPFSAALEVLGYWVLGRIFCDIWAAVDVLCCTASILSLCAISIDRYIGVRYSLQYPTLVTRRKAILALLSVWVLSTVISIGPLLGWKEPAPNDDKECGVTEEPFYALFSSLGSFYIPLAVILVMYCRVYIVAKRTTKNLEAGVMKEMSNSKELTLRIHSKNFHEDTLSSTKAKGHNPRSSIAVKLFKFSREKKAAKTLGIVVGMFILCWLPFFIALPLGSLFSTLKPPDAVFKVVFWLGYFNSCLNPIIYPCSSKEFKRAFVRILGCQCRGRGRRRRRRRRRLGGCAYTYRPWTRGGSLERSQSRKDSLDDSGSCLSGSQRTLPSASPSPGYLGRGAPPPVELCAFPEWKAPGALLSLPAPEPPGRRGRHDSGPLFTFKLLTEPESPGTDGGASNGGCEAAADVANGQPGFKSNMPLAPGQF

{"compound": "O=C1c2ccccc2CCC1CNCCc1ccc(O)c(I)c1 (stereo not shown) [125I-HEAT, reference compound]", "target-desc": "α1b-AR (Homo sapiens, UniProt P35368)", "unit": "nM", "Kd": 79}

###

# Lookup of reported log10(Ki) keyed by entry
Target sequence: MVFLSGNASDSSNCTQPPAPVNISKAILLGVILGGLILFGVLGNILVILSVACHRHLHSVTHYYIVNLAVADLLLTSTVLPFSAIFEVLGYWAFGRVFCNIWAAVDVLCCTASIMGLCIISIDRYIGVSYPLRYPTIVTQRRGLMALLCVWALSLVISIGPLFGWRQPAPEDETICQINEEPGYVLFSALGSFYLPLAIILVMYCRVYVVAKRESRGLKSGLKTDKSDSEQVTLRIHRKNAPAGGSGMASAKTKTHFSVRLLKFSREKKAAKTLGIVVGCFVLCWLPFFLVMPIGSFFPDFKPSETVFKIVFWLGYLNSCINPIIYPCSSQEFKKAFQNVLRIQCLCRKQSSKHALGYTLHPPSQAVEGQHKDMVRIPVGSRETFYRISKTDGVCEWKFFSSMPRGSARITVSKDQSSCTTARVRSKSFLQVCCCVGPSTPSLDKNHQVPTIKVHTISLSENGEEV
property-name: log10(Ki) (log10 of the value in nM)

{"smiles-repr": "COc1ccc(F)cc1S(=O)(=O)N[C@H]1CC[C@H](N2CCN(c3ccccc3OC(C)C)CC2)CC1", "value": 1.04}
{"smiles-repr": "CC(C)Oc1ccccc1N1CCN([C@H]2CC[C@H](NS(=O)(=O)c3ccc(Cl)cc3Cl)CC2)CC1", "value": 0.20}
{"smiles-repr": "CC(C)Oc1ccccc1N1CCN([C@H]2CC[C@H](NS(=O)(=O)c3ccc(F)cc3)CC2)CC1", "value": 0.11}
{"smiles-repr": "COc1ccc(C)cc1S(=O)(=O)N[C@H]1CC[C@H](N2CCN(c3ccccc3OC(C)C)CC2)CC1", "value": -0.05}
{"smiles-repr": "CC(C)Oc1ccccc1N1CCN([C@H]2CC[C@H](NS(=O)(=O)c3ccc(C(F)(F)F)cc3)CC2)CC1", "value": 1.83}
{"smiles-repr": "Cc1ccc(S(=O)(=O)N[C@H]2CC[C@H](N3CCN(c4ccccc4OC(C)C)CC3)CC2)cc1Cl", "value": 0.18}
{"smiles-repr": "COc1ccc(S(=O)(=O)N[C@H]2CC[C@@H](N3CCN(c4cc(F)ccc4OCC(F)(F)F)CC3)CC2)cc1OC", "value": 0.23}
{"smiles-repr": "COc1ccc(C)cc1S(=O)(=O)N[C@H]1CC[C@@H](N2CCN(c3ccccc3OC(C)C)CC2)CC1", "value": 0.66}
{"smiles-repr": "CC(C)Oc1ccccc1N1CCN([C@H]2CC[C@@H](NS(=O)(=O)c3ccc(Cl)cc3Cl)CC2)CC1", "value": 0.65}
{"smiles-repr": "COc1ccc(S(=O)(=O)N[C@H]2CC[C@@H](N3CCN(c4ccccc4OCC(F)(F)F)CC3)CC2)cc1OC", "value": 0.08}
{"smiles-repr": "CC(C)Oc1ccccc1N1CCN([C@H]2CC[C@H](NS(=O)(=O)c3cccc4cccnc34)CC2)CC1", "value": -0.30}
{"smiles-repr": "CC(C)Oc1ccccc1N1CCN([C@H]2CC[C@@H](NS(=O)(=O)c3ccc(OC(F)(F)F)cc3)CC2)CC1", "value": 1.24}
{"smiles-repr": "O=S(=O)(N[C@H]1CC[C@H](N2CCN(c3ccc(F)cc3OCC(F)(F)F)CC2)CC1)c1cc(Cl)ccc1F", "value": 1.72}
{"smiles-repr": "CC(C)Oc1ccccc1N1CCN([C@H]2CC[C@@H](NS(=O)(=O)c3cccnc3)CC2)CC1", "value": 0.70}
{"smiles-repr": "Cc1ccc(S(=O)(=O)N[C@H]2CC[C@@H](N3CCN(c4ccccc4OC(C)C)CC3)CC2)cc1Cl", "value": 1.02}
